Reported values of MBC for individual entries
System: MRSA NCTC 12493
Assay type: cell-based, Methicillin-resistant Staphylococcus aureus
Where a SMILES comes first, the peptide text is derived from it.
Reply with just the number (in µM).

Take a look at these entries with their results.
Molecule: CC[C@H](C)[C@H](NC(=O)[C@H](C)NC(=O)[C@H](CCC(=O)O)NC(=O)[C@H](CCCCN)NC(=O)CNC(=O)[C@H](CC(C)C)NC(=O)[C@H](C)NC(=O)[C@H](CC(C)C)NC(=O)[C@H](C)NC(=O)[C@H](CC(C)C)NC(=O)[C@@H](N)Cc1ccccc1)C(=O)N[C@@H](C)C(=O)N[C@@H](CCCCN)C(=O)N[C@@H](CC(C)C)C(=O)N[C@@H](CCCCN)C(N)=O [QUB-1585] (H-FLALALGKEAIAKLK-NH2)
Quantitative Readout: 128

Molecule: CC[C@H](C)[C@H](NC(=O)[C@H](C)NC(=O)[C@H](CCCCN)NC(=O)CNC(=O)[C@@H](NC(=O)[C@H](CC(C)C)NC(=O)[C@H](C)NC(=O)[C@H](CC(C)C)NC(=O)[C@H](C)NC(=O)[C@H](CC(C)C)NC(=O)[C@@H](N)Cc1ccccc1)[C@@H](C)CC)C(=O)N[C@@H](C)C(=O)N[C@@H](CCCCN)C(=O)N[C@@H](CC(C)C)C(=O)N[C@@H](CCCCN)C(N)=O [QUB-1570] (H-FLALALIGKAIAKLK-NH2)
Quantitative Readout: 8

Data request, read-out MBC, for CC[C@H](C)[C@H](NC(=O)[C@H](C)NC(=O)[C@H](CCC(=O)O)NC(=O)[C@H](CCC(N)=O)NC(=O)[C@@H](NC(=O)[C@H](CC(C)C)NC(=O)[C@H](C)NC(=O)[C@H](CC(C)C)NC(=O)[C@H](C)NC(=O)[C@H](CC(C)C)NC(=O)[C@@H](N)Cc1ccccc1)[C@@H](C)CC)C(=O)N[C@@H](C)C(=O)N[C@@H](CCCCN)C(=O)N[C@@H](CC(C)C)C(=O)N[C@@H](CCCCN)C(N)=O [QUB-1641] (H-FLALALIQEAIAKLK-NH2)
128

MBC for CC[C@H](C)[C@H](NC(=O)[C@H](C)NC(=O)[C@H](CCC(=O)O)NC(=O)[C@H](CCC(N)=O)NC(=O)[C@@H](NC(=O)[C@H](CC(C)C)NC(=O)[C@H](CCCCN)NC(=O)CNC(=O)[C@H](C)NC(=O)[C@H](CC(C)C)NC(=O)[C@@H](N)Cc1ccccc1)[C@@H](C)CC)C(=O)N[C@@H](C)C(=O)N[C@@H](CCCCN)C(=O)N[C@@H](CC(C)C)C(=O)N[C@@H](CCCCN)C(N)=O [QUB-1643] (H-FLAGKLIQEAIAKLK-NH2) ?
128

Name the recorded MBC for CC[C@H](C)[C@H](NC(=O)[C@H](C)NC(=O)[C@H](CCCCN)NC(=O)[C@@H]1CCCN1C(=O)[C@@H](NC(=O)[C@H](CC(C)C)NC(=O)[C@H](C)NC(=O)[C@H](CC(C)C)NC(=O)[C@H](C)NC(=O)[C@H](CC(C)C)NC(=O)[C@@H](N)Cc1ccccc1)[C@@H](C)CC)C(=O)N[C@@H](C)C(=O)N[C@@H](CCCCN)C(=O)N[C@@H](CC(C)C)C(=O)N[C@@H](CCCCN)C(N)=O [QUB-1609] (H-FLALALIPKAIAKLK-NH2) .
16

----------
MIC for assorted compounds
Tested on: P. aeruginosa ATCC 27853
Assay type: cell-based, Pseudomonas aeruginosa
Where a SMILES comes first, the peptide text is derived from it.

Compound: CC[C@H](C)[C@H](NC(=O)[C@H](C)NC(=O)CNC(=O)CNC(=O)[C@@H](NC(=O)[C@H](CC(C)C)NC(=O)[C@H](C)NC(=O)[C@H](CC(C)C)NC(=O)[C@H](C)NC(=O)[C@H](CC(C)C)NC(=O)[C@@H](N)Cc1ccccc1)[C@@H](C)CC)C(=O)N[C@@H](C)C(=O)N[C@@H](CCCCN)C(=O)N[C@@H](CC(C)C)C(=O)N[C@@H](CCCCN)C(N)=O [QUB-1498] (H-FLALALIGGAIAKLK-NH2)
MIC: > 128 µM

Find the recorded MIC belonging to CC[C@H](C)[C@H](NC(=O)[C@H](C)NC(=O)[C@H](CCC(=O)O)NC(=O)[C@H](CCC(N)=O)NC(=O)[C@H](CCCCN)NC(=O)CNC(=O)[C@H](C)NC(=O)[C@H](CC(C)C)NC(=O)[C@H](C)NC(=O)[C@H](CC(C)C)NC(=O)[C@@H](N)Cc1ccccc1)C(=O)N[C@@H](C)C(=O)N[C@@H](CCCCN)C(=O)N[C@@H](CC(C)C)C(=O)N[C@@H](CCCCN)C(N)=O [QUB-1599] (H-FLALAGKQEAIAKLK-NH2) and report it.
> 128 µM

----------
System: C. albicans NCTC 10231
Where a SMILES comes first, the peptide text is derived from it.
Reported Metric: MIC

// map CC[C@H](C)[C@H](NC(=O)[C@H](C)NC(=O)[C@H](CCC(=O)O)NC(=O)[C@H](CCC(N)=O)NC(=O)[C@@H](NC(=O)[C@H](CC(C)C)NC(=O)[C@H](C)NC(=O)[C@H](CC(C)C)NC(=O)[C@H](C)NC(=O)[C@H](CC(C)C)NC(=O)[C@@H](N)Cc1ccccc1)[C@@H](C)CC)C(=O)N[C@@H](C)C(=O)N[C@@H](CCCCN)C(=O)N[C@@H](CC(C)C)C(=O)N[C@@H](CCCCN)C(N)=O [QUB-1641] (H-FLALALIQEAIAKLK-NH2) to recorded MIC (system: C. albicans NCTC 10231)
> 128 µM

----------
Tested on: K. pneumoniae ATCC 43816
Where a SMILES comes first, the peptide text is derived from it.
Reported Metric: MIC (µM)
The response must be a number in µM with no trailing unit.

May I ask what MIC has been recorded for CC[C@H](C)[C@H](NC(=O)[C@H](C)NC(=O)[C@H](CCCCN)NC(=O)CNC(=O)[C@@H](NC(=O)[C@H](CC(C)C)NC(=O)[C@H](C)NC(=O)[C@H](CC(C)C)NC(=O)[C@H](C)NC(=O)[C@H](CC(C)C)NC(=O)[C@@H](N)Cc1ccccc1)[C@@H](C)CC)C(=O)N[C@@H](C)C(=O)N[C@@H](CCCCN)C(=O)N[C@@H](CC(C)C)C(=O)N[C@@H](CCCCN)C(N)=O [QUB-1570] (H-FLALALIGKAIAKLK-NH2) ?
32

----------
Measured MBC of individual entries
Tested on: E. coli NCTC 10418
Assay type: cell-based, Escherichia coli
Where a SMILES comes first, the peptide text is derived from it.
// units = µM; emit number, no label

Solved entries:
Compound: CC[C@H](C)[C@H](NC(=O)[C@H](C)NC(=O)[C@H](CCCCN)NC(=O)[C@@H]1CCCN1C(=O)[C@@H](NC(=O)[C@H](CC(C)C)NC(=O)[C@H](C)NC(=O)[C@H](CC(C)C)NC(=O)[C@H](C)NC(=O)[C@H](CC(C)C)NC(=O)[C@@H](N)Cc1ccccc1)[C@@H](C)CC)C(=O)N[C@@H](C)C(=O)N[C@@H](CCCCN)C(=O)N[C@@H](CC(C)C)C(=O)N[C@@H](CCCCN)C(N)=O [QUB-1609] (H-FLALALIPKAIAKLK-NH2)
Reported Metric: MBC
Readout Units: µM
Quantitative Readout: 64
//
Compound: CC[C@H](C)[C@H](NC(=O)[C@H](C)NC(=O)[C@H](CCC(=O)O)NC(=O)[C@H](CCCCN)NC(=O)CNC(=O)[C@H](CC(C)C)NC(=O)[C@H](C)NC(=O)[C@H](CC(C)C)NC(=O)[C@H](C)NC(=O)[C@H](CC(C)C)NC(=O)[C@@H](N)Cc1ccccc1)C(=O)N[C@@H](C)C(=O)N[C@@H](CCCCN)C(=O)N[C@@H](CC(C)C)C(=O)N[C@@H](CCCCN)C(N)=O [QUB-1585] (H-FLALALGKEAIAKLK-NH2)
Reported Metric: MBC
Readout Units: µM
Quantitative Readout: 128

What value of measured MBC is listed for CC[C@H](C)[C@H](NC(=O)[C@H](C)NC(=O)[C@H](CCCCN)NC(=O)CNC(=O)[C@@H](NC(=O)[C@H](CC(C)C)NC(=O)[C@H](C)NC(=O)[C@H](CC(C)C)NC(=O)[C@H](C)NC(=O)[C@H](CC(C)C)NC(=O)[C@@H](N)Cc1ccccc1)[C@@H](C)CC)C(=O)N[C@@H](C)C(=O)N[C@@H](CCCCN)C(=O)N[C@@H](CC(C)C)C(=O)N[C@@H](CCCCN)C(N)=O [QUB-1570] (H-FLALALIGKAIAKLK-NH2) ?
32
